Target: triton-extracted alpha-synuclein from PD Tissue (Homo sapiens)
Construct: tissue Analytic Biological Services Inc; host or cells: human PD temporal cortex grey matter, Triton X-100 insoluble pellet
Assay: Alpha-synuclein tissue homogenate binding assay (Assay 1), displacement of [^3H]-1000
Conditions: Aβ Tissue Ki / α-synuclein Tissue Ki
reported.property: Selectivity ratio (Assay 2/Assay 1)

Solved cases below.
                               smiles_entry                    reported_property  reading
0  COC[C@H]1CN(c2cc(Cl)ncn2)CCN1c1ncc(/C=C/c2ccc(-n3ccnc3)nc2)cn1  Selectivity ratio (Assay 2/Assay 1)     9231
1  OC[C@H]1CN(c2cc(F)ncn2)CCN1c1ncc(/C=C/c2ccc(-n3ccnc3)nc2)cn1  Selectivity ratio (Assay 2/Assay 1)    12000
2  COC[C@H]1CN(c2ccnc(F)c2)CCN1c1ncc(/C=C/c2ccc(-n3ccnc3)nc2)cn1  Selectivity ratio (Assay 2/Assay 1)      180

I = FCCOC[C@@H]1CN(c2ncc(C#Cc3ccc(-c4cnco4)nc3)cn2)CCN1c1ncncn1
II = COC[C@H]1CN(c2ccccn2)CCN1c1ncc(/C=C/c2ccc(-c3cnco3)nc2)cn1
III = COC[C@H]1CN(c2ncc(/C=C/c3ccc(-n4ccnc4)nc3)cn2)CCN1c1ncc(CO)cn1
IV = COC[C@H]1CN(c2ncc(/C=C/c3ccc(-n4ccnc4)nc3)cn2)CCN1c1ncc(F)cn1
Place the items in sequence of falling Selectivity ratio (Assay 2/Assay 1). Response format: the labels, sorted as the prompt asks.
II, I, III, IV

A = Cn1cc(-c2ncc(C#Cc3cnc(N4CCN(c5ncncn5)[C@@H](COCCOCCF)C4)nc3)cn2)cn1
B = COC[C@H]1CN(c2ncc(C#Cc3ccc(-n4ccnc4)nc3)cn2)CCN1c1cc(F)ncn1
C = OC[C@H]1CN(c2cnccn2)CCN1c1ncc(/C=C/c2ccc(-n3ccnc3)nc2)cn1
D = COC[C@H]1CN(c2cc(F)ccn2)CCN1c1ncc(/C=C/c2ccc(N3CCOCC3)nc2)cn1
Place the items in sequence of falling Selectivity ratio (Assay 2/Assay 1). Response format: the labels, sorted as the prompt asks.
C, B, A, D
(C: 10000, B: 3636, A: 753, D: 281)

A = COC[C@H]1CN(c2ncc(C#Cc3ccc(-n4ccnc4)nc3)cn2)CCN1c1ccnc(F)n1
B = COC[C@H]1CN(c2ncccn2)CCN1c1ncc(/C=C/c2ccc(-n3ccnc3)nc2)cn1
C = FCCOC[C@H]1CN(c2ncc(/C=C/c3ccc(-c4cnco4)nc3)cn2)CCN1c1ncccn1
D = COC[C@H]1CN(c2ccccn2)CCN1c1ncc(/C=C/c2ccc(-n3cnnc3)nc2)cn1
Place the items in sequence of falling Selectivity ratio (Assay 2/Assay 1). Response format: the labels, sorted as the prompt asks.
C, D, B, A
(C: 12000, D: 7500, B: 3077, A: 805)

1 = Cn1cc(-c2ncc(C#Cc3cnc(N4CCN(c5ncccn5)[C@@H](COCCF)C4)nc3)cn2)cn1
2 = COC[C@H]1CN(c2ccc(F)nc2)CCN1c1ncc(/C=C/c2ccc(-n3ccnc3)nc2)cn1
3 = COC[C@H]1CN(c2ncc(/C=C/c3ccc(-n4ccnc4)nc3)cn2)CCN1c1ccnc(F)n1
Place the items in sequence of falling Selectivity ratio (Assay 2/Assay 1). Response format: the labels, sorted as the prompt asks.
2, 3, 1
(2: 13333, 3: 6667, 1: 654)

A = COC[C@H]1CN(c2ncc(C#Cc3ccc(-n4cnnc4)nc3)cn2)CCN1c1cc(F)ncn1
B = Cn1cc(-c2ncc(C#Cc3cnc(N4CCN(c5ncccn5)[C@@H](COCCOCCF)C4)nc3)cn2)cn1
C = COC[C@H]1CN(c2ncc(/C=C/c3ccc(-c4cnn(CCF)c4)nc3)cn2)CCN1c1ncccn1
// ascending sort on recorded Selectivity ratio (Assay 2/Assay 1) Response format: the labels, sorted as the prompt asks.
A, B, C

P = Cn1cc(-c2ncc(C#Cc3cnc(N4CCN(c5ncccn5)[C@@H](COCCOCCOCCF)C4)nc3)cn2)cn1
Q = FCCOC[C@H]1CN(c2ncc(C#Cc3ccc(-n4cnnc4)nc3)cn2)CCN1c1ncncn1
Rank P against Q by their Selectivity ratio (Assay 2/Assay 1) values and give the higher one. To answer, give the label that identifies your chosen option.
P
